FYI, the data here is from patent US9266964.

- Target entity: human plasma kallikrein (human, UniProt P03952 20-390; P03952 391-638)
- Sequence (P03952 20-390, chain 1 of 2): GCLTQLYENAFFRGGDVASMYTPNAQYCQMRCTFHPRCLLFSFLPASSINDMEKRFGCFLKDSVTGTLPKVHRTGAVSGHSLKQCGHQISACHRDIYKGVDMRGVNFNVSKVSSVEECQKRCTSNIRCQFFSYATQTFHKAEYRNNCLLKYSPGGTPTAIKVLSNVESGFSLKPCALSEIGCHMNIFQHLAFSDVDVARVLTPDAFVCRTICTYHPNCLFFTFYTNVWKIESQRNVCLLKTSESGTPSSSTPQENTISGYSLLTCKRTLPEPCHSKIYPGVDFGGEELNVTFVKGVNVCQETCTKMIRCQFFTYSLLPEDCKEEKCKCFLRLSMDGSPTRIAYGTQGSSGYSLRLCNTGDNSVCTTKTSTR
- Sequence (P03952 391-638, chain 2 of 2): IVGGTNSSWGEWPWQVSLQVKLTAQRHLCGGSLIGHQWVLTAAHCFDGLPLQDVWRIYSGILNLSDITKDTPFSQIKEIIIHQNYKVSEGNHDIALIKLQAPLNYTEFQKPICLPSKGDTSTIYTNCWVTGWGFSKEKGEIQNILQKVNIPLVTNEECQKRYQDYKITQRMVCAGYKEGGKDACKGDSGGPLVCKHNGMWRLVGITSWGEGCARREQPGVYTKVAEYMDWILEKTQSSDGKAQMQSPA
- Protocol: cell-based or functional assay
Observation type: % inhibition at 10 nM

M205-F03 (Fab, V domains shown) VH: EVQLLESGGGLVQPGGSLRLSCAASGFTFSSQQMVWVRQAPGKGLEWVSYISPSGGNTYYADSVKGRFTISRDNSKNTLYLQMNSLRAEDTAVYYCARVARGIAARSRTSYFDYWGQGTLVTVSS VL: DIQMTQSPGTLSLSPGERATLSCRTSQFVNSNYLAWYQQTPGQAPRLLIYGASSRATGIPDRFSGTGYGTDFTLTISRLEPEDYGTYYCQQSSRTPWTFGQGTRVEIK = 58.6%
M207-A04 (Fab, V domains shown) VH: EVQLLESGGGLVQPGGSLRLSCAASGFTFSHYLMTWVRQAPGKGLEWVSYISPSGGHTIYADSVKGRFTISRDNSKNTLYLQMNSLRAEDTAVYYCARVARGIAARSRTRSFDYWGQGTLVTVSS VL: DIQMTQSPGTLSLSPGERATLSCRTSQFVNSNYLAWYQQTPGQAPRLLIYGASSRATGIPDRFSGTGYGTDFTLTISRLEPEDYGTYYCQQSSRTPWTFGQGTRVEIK = 90.9%

Next binder, % inhibition at 10 nM to be filled in.
The binder identified as M210-A06 (Fab, V domains shown) VH: EVQLLESGGGLVQPGGSLRLSCAASGFTFSHYLMTWVRQAPGKGLEWVSYISPSGGHTIYADSVKGRFTISRDNSKNTLYLQMNSLRAEDTAVYYCARVARGIAARSRTSQFDYWGQGTLVTVSS VL: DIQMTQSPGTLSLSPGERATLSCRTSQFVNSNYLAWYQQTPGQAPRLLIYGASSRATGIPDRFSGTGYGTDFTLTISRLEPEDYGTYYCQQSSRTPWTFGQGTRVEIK registered its % inhibition at 10 nM at 74.8%
